Reference source for all entries: patent US20260209214A1

- systemName: Recombinant human LSD1 (Homo sapiens, UniProt O60341)
- assayComment: LSD1 inhibition assay (HTRF LSD1 Histone H3K4 mono-demethylation assay, me1->me0)
- Format: biochemical
- conditionSet: 20 nM recombinant human LSD1, 95 nM H3K4(me1) biotinylated peptide, 15 min preincubation, 60 min at 25° C., read-out: LSD1 inhibition IC50 (nM range)
Catalogue of IC50 values

These recorded examples may help you get a feel for the data.
INSERT INTO assay_data (compound, endpointvalue) VALUES
  ('Cc1cc(CNCC2CCCNC2)c(Cl)c(-c2ccc(C#N)c(F)c2)c1 (stereo not drawn) [Example 348]', '100 to 1000 nM'),
  ('N#Cc1ccc(-c2cccc(CN3C[C@]4(N)CC[C@H]3C4)c2-c2scnc2Cl)cc1F [Example 188]', '10 to 25 nM'),
  ('CN[C@H]1CCCCN(Cc2cccc(-c3ccc(C#N)c(F)c3)c2C2CC2)C1 [Example 272]', '100 to 1000 nM'),
  ('N#Cc1ccc(-c2cccc(CN3CCC4(CNC4)C3)c2Cl)cc1F [Example 341]', '100 to 1000 nM'),
  ('N#Cc1ccc(-c2cc(CN3[C@@H]4CC[C@H]3[C@@H](N)C4)ccc2OC(F)F)cc1F (racemic) [Example 310]', '10 to 25 nM'),
  ('Cc1cc(CN2CCC3(CCN3C)C2)c(Cl)c(-c2ccc(C#N)c(F)c2)c1 (stereo not drawn) [Compound 240]', '25 to 100 nM');

Q: Give the reported value of IC50 for this record: CC1(C)CN(Cc2cccc(-c3ccc(C#N)c(F)c3)c2-c2ccns2)CC1N (stereo not drawn) [Example 198]
Ans: 10 to 25 nM

Q: Give the reported value of IC50 for this record: N#Cc1ccc(-c2cccc(CN3[C@@H]4CC[C@H]3[C@@H](N)C4)c2C2CC2)cc1 (racemic) [Example 191]
Ans: 25 to 100 nM

Q: Give the reported value of IC50 for this record: CN(CC1CC1)c1ccc(CN2[C@@H]3CC[C@H]2[C@@H](N)C3)cc1-c1ccc(C#N)c(F)c1 (racemic) [Example 254]
Ans: 10 to 25 nM

Q: Give the reported value of IC50 for this record: CN[C@H]1C[C@H]2CC[C@@H]1N2Cc1cccc(-c2ccc(C#N)cc2)c1-c1ccns1 (single isomer, unassigned) [Example 182]
Ans: < 10 nM

Q: Give the reported value of IC50 for this record: N#Cc1ccc(-c2cccc(CN3CC4(N)CCC3CC4)c2Cl)cc1F [Example 328]
Ans: 100 to 1000 nM

Q: Give the reported value of IC50 for this record: CC1(N)CCCN(Cc2cccc(-c3ccc(C#N)c(F)c3)c2Cl)C1 (stereo not drawn) [Example 286]
Ans: > 1000 nM

Q: Give the reported value of IC50 for this record: N#Cc1ccc(-c2cc(F)cc(CC3CNCCO3)c2-c2ccns2)cc1F (stereo not drawn) [Example 18]
Ans: 10 to 25 nM

Q: Give the reported value of IC50 for this record: N#Cc1ccc(-c2cc(CN3[C@@H]4CC[C@H]3[C@@H](N)C4)ccc2-c2ccns2)cc1F (racemic) [Example 314]
Ans: 10 to 25 nM
